Test system: DU-145 prostate
assayExplanation: NCI tumour cell line growth inhibition, 48 h

compound	experimentalTarget	GI50
CN(C)CCCOc1ccc(OCCCN(C)C)c2c1C(=O)c1ccccc1C2=O	DU-145 prostate	1.14 µM
O=C(Nc1cccc(-n2cc(-c3ccncc3)c(-c3ccc(Cl)c(O)c3)n2)c1)Nc1ccc(Cl)c(C(F)(F)F)c1	DU-145 prostate	1.16 µM
CCn1cc(C(=O)O)c(=O)c2cc(F)c(N3CCN(S(=O)(=O)c4ccc(Cl)cc4)CC3)cc21	DU-145 prostate	4.11 µM
ClCc1ccc(-c2ccc(Cn3cnc4nc(Cl)nc(Cl)c43)cc2)cc1	DU-145 prostate	2.71 µM
C[C@@H]1C[N+]2([O-])[C@H]3C4=CCC[C@@H]4CC[C@H]3[C@@]3(C)OC(=O)CC[C@]34CC[C@H]1[C@@H]42 (stereo not given in full)	DU-145 prostate	> 60 µM

Reference source: PubChem BioAssay (NCI)
